target: Adrenergic receptor alpha-1 (Rattus norvegicus, UniProt P15823+P23944+P43140)
assay-explanation: In vitro binding affinity towards alpha-1 adrenergic receptor by the displacement of [3H]prazosin radioligand in rat cortical homogenates
quantity-measured: Ki (nM)

c1ccc(CCCCNCCOc2cccc3[nH]ccc23)cc1 : 11.5
CCCCNCCOc1ccc(Cl)c2c1CC(=O)N2 : 11
CN(CCCC(=O)c1ccc(F)cc1)CCOc1cccc2c1CC(=O)N2 : 9.5
O=C(c1c[nH]c2cccc(OCCNCc3ccccc3)c12)C(F)(F)F : 60
O=C1Cc2c(OCCNCc3ccc(F)cc3)ccc(Cl)c2N1 : 431

[I] O=C1Cc2c(OCCN3CCc4ccccc4C3)ccc(Cl)c2N1
[II] O=C1Cc2c(OCCNCc3ccccc3)ccc(Cl)c2N1
Please indicate which entry, I or II , has the lower recorded Ki value. Reply briefly: the label of your chosen item. I

[a] c1ccc(CNCCOc2cccc3[nH]ccc23)cc1
[b] O=C1Cc2c(OCCN3Cc4ccccc4C3)ccc(F)c2N1
[c] NCCOc1ccc(F)c2c1CC(=O)N2
[d] Clc1ccc(OCCNCc2ccccc2)c2cc[nH]c12
[e] Clc1ccc(OCCNCc2ccccc2)c2c(Cl)c[nH]c12
Hello, I need these entries ordered by Ki, highest reading first. Thanks! Put the labels in the requested order and list them out. a, b, d, e, c
(a: 675 nM, b: 268 nM, d: 138.5 nM, e: 66 nM, c: 25 nM)

[I] O=C1Cc2c(OCCNCCCc3c[nH]c4ccccc34)ccc(F)c2N1
[II] Clc1c[nH]c2cccc(OCCNCCCCc3ccccc3)c12
[III] O=C1Cc2c(ccc3c2O[C@@H](CNCc2ccccc2)CC3)N1
Thanks in advance: please rank these 3 entries by Ki, highest to lowest. // ordering of labels required in reply III, I, II
(III: 165 nM, I: 26 nM, II: 8.5 nM)

[a] Clc1ccc(CNCCOc2ccc(Cl)c3[nH]cc(Cl)c23)cc1
[b] Oc1cccc(OCCNCc2ccccc2)c1
Exercise: compare a and b ; which one has the greater Ki? Give the label under which the chosen entry appears. b

[A] Cc1ccc(CNCCOc2ccc(Cl)c3c2CC(=O)N3)cc1
[B] Fc1ccc(CNCCOc2ccc(Cl)c3[nH]cc(Cl)c23)cc1
[C] O=C1Cc2c(cccc2OCCNCCCCc2ccccc2)N1
Provide the items ranked by increasing Ki. Please write the labels in the order that was asked for. C, B, A
(C: 13 nM, B: 229 nM, A: 334 nM)

[a] O=C1Cc2c(OCCNCc3ccc4ccccc4c3)ccc(F)c2N1
[b] CNCCOc1cccc2c1CC(=O)N2
Could you tell me which of these two has the smaller Ki figure? First: a Second: b Kindly state the label of the option you pick. a
